Known inhibition at 1 µM of a selection of compounds
target.of.assay: LTD4 evoked ileal contractions (Cavia porcellus)
Construct: A section of terminal ileum was removed, the lumen cleaned, and the tissue divided into 2.5 cm. segments; from tissue; host or cells: terminal ileum of male Hartley guinea pigs
Sequence (Q2NNR5 1-340): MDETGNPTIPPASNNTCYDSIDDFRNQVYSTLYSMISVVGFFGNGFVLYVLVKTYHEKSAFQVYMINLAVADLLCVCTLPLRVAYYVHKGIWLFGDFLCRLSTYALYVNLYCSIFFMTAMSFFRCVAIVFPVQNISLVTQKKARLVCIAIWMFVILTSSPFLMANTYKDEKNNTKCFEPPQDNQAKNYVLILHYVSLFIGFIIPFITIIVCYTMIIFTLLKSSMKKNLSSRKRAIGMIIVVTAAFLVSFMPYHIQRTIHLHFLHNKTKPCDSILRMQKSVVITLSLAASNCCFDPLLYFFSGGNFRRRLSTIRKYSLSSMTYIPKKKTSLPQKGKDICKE
assay.protocol: Antagonism of LTD4-evoked contraction of isolated guinea pig ileum (single concentration)
Assay type: cell-based
measurement.setup: 1 × 10^-6 M, pure LTD4, 5 minute exposure, read-out: Percent Inhibition of LTD4 evoked ileal contractions
Where a name gives a salt, the structure may show the parent alone.
measured.quantity: inhibition at 1 µM (%)

1. CCCc1c(OCCCCCCCCCCc2nnn[nH]2)ccc(C(C)=O)c1O [Example 13] = 76
2. CCCc1c(OCCCCCc2nnnn2C)ccc(C(C)=O)c1O [Example 52] = 38
3. CCCc1c(OCCCCCSc2nn[nH]n2)ccc(C(C)=O)c1O [Example 68] = 82
4. CCCc1c(OCCCCCCCC(=O)O)ccc(C(C)=O)c1O [Example 30] = 62
5. CCCc1c(OCCCCCCCCCCCCc2nnn[nH]2)ccc(C(C)=O)c1O [Example 14] = 22
6. CCCc1c(OCCCCCCCCSc2nn[nH]n2)ccc(C(C)=O)c1O [Example 73] = 50
7. CCCc1c(OCCCSC(=N)N)ccc(C(C)=O)c1O [Example 60, hydrobromide] = 28
8. CCCc1c(OCCCCC(=O)OCC)ccc(C(C)=O)c1O [Example 54] = 40
9. CCCc1c(OCCCCCCc2nnn[nH]2)ccc(C(C)=O)c1O [Example 9] = 87
